B1: tRNA (parent)
chain: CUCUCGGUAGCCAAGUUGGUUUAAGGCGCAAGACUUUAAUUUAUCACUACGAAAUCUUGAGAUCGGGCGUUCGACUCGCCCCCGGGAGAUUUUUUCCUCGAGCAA

Variants of: B1
Assay: nonsense suppression (GFP-seq) (ratio to wild type); higher = more function; SUP4oc tRNA, yeast GFP reporter sort-seq
Variants at the floor of the assay were thinned out.
endpointLabel: nonsense suppression
One number for each entry.

[[record]]
variantstring = "A54C A60G"
endpointlabel = "nonsense suppression"
endpointresult = 0.0773

[[record]]
variantstring = "A24C U57A"
endpointlabel = "nonsense suppression"
endpointresult = 0.0454

[[record]]
variantstring = "U22G G73A"
endpointlabel = "nonsense suppression"
endpointresult = 0.854


List the reported nonsense suppression of each variant below.
1. A13G U21C
2. U4C C80U
3. G61C G78U
4. C29U A31G

[0.211, 0.651, 0.13, 0.0421]
